Test: Solubility of Compound 1 in solvents
Type: physicochemical
Details: ethanol, organic solvent or mixture
measurement label: solubility (mg/mL)
Dear colleague, please return just the value in mg/mL, with no unit written.

Value lookup for solubility; key = Cc1cccc(-n2ncc(C)c2-c2cc3cnccc3s2)n1 [Compound 1]
30.8

---

Test: Solubility of Compound 1 in solvents
Assay type: physicochemical
Settings: isopropyl myristate, oil or lipid
From the text: Tables 2 and 3 provide the solubility of the exemplary ALK-5 kinase inhibitor Compound 1 in various solvents.
measurement label: solubility (µg/mL)
Value expressed in µg/mL; do not type the unit.

Return reported solubility; argument: Cc1cccc(-n2ncc(C)c2-c2cc3cnccc3s2)n1
3450

Hey, just so you know, these numbers are from patent US20250134875A1.
